# Protocol: Tissue distribution of toremifene and metabolites after 5 days IP vs. topical toremifene (HPLC), mice with MDA A-1 tumors
# Condition Parameters: mouse, uterus, topical or ocular, 2.5 mg
# Experimental: Sixteen female athymic nude mice were injected with a 20-gauge needle subcutaneously with 5×10^6 MDA A-1 cells in the left scapular area. The tumors were allowed to grow for three weeks prior to treatment. Each of the three mice were injected IP using an 18 gauge needle with 50 μl, delivering 1 mg/day for five days. […] All blood samples were centrifuged at 1,000 g. The plasma was collected, measured for volume, and placed in clean extraction tubes. […]
Endpoint Name: concentration at 2 h (ng/g)

[[record]]
compound = "CNCCOc1ccc(C(=C(CCCl)c2ccccc2)c2ccccc2)cc1 [N-demethyltoremifene]"
endpoint_name = "concentration at 2 h"
units_text = "ng/g"
endpoint_result = 560

[[record]]
compound = "CN(C)CCOc1ccc(/C(=C(/CCCl)c2ccccc2)c2ccc(O)cc2)cc1 [4-hydroxytoremifene]"
endpoint_name = "concentration at 2 h"
units_text = "ng/g"
endpoint_result = 700

